# protocol: Cytotoxicity against Homo sapiens (human) PMN cells assessed as cell viability at 1 ug/ml by trypan blue dye exclusion test (reference value: 83.94 +/-5.05%)
# Format: cell-based
# assay context: read-out: Activity
measured parameter: viability at 1 ug/ml
Returns: string containing the number followed by the unit.

In: Tell me its viability at 1 ug/ml given C[C@H]1CC[C@@]2(OC1)O[C@H]1C[C@H]3[C@@H]4CC[C@@H]5C[C@@H](O[C@@H]6O[C@H](CO[C@@H]7O[C@@H](C)[C@H](O)[C@@H](O)[C@H]7O)[C@@H](O)[C@H](O)[C@H]6O[C@@H]6OC[C@H](O)[C@H](O)[C@H]6O)CC[C@]5(C)[C@H]4CC[C@]3(C)[C@H]1[C@@H]2C [SHATAVAROSIDE A] as the entry.
Out: 76.2%

// data source = ChEMBL document CHEMBL3044851
